molecular target: purified human Factor XIa (Homo sapiens); construct: Determinations were made using purified human Factor XIa; purchased Sekisui Diagnostics; assay: Factor XIa Assay (hydrolysis of fluorogenic substrate Z-Gly-Pro-Arg-AFC); assay type: biochemical; conditions: purified human Factor XIa 40 pM; Z-Gly-Pro-Arg-AFC 100 μM; 50 mM HEPES pH 7.4; read-out: Factor XIa Inhibition (IC50 (nM))
Sequence (P03951 388-625 limits assumed): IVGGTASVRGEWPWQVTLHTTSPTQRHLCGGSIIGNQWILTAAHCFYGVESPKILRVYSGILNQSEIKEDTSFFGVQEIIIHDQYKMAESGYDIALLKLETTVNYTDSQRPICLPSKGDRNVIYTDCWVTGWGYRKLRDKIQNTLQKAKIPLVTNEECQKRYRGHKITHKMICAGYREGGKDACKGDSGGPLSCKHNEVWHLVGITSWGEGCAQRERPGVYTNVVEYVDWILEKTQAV
Sequence (P03951 19-387 partner limits assumed): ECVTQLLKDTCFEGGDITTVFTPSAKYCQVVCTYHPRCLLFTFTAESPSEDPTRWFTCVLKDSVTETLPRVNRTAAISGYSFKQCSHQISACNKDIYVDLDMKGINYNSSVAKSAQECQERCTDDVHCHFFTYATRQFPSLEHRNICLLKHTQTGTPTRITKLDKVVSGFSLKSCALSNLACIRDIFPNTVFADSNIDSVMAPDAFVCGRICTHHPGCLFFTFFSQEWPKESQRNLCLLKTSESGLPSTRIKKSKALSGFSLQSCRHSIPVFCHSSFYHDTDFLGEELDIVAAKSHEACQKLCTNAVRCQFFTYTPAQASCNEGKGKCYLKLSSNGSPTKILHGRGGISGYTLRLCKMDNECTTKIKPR
measured.property: IC50 (nM)

compound | IC50 (nM)
N#Cc1ccc(-c2cnc(C3C(c4ccc(F)cc4)CC(N4CCC(N)CC4)CN3C(=O)/C=C/c3c(C(F)(F)F)ccc(Cl)c3F)[nH]2)cc1 (centres unmarked) [Example 17] | 889

I = O=C(Nc1ccc2[nH]ncc2c1)[C@@H]1[C@H](c2ccc(F)cc2)C[C@H](N2CCNCC2)CN1C(=O)/C=C/c1cc(Cl)ccc1-n1cnnn1
II = COC(=O)Nc1ccc(-c2c[nH]c([C@@H]3[C@H](C4CC4)C[C@H](N4CCC(N)CC4)CN3C(=O)/C=C/c3cc(Cl)ccc3-n3cnnn3)n2)cc1
III = O=C(O)c1ccc(NC(=O)[C@@H]2[C@H](c3ccccc3)C[C@H](OC3CCNCC3)CN2C(=O)/C=C/c2cc(Cl)ccc2-n2cnnn2)cc1 (racemic) [Example 8]
IV = O=C(O)c1ccc(NC(=O)[C@@H]2[C@H](c3ccccc3)C[C@H](OC3CCNCC3)CN2C(=O)/C=C/c2cc(Cl)ccc2-n2cnnn2)cc1 (single isomer, unassigned) [Example 9]
Put these in order: smallest IC50 first, largest last. A complete answer lists every label in the requested sequence.
IV, III, I, II
(IV: 2.5 nM, III: 4.7 nM, I: 40.9 nM, II: 671 nM)

---

target: purified human Factor XIa (Homo sapiens); construct: Determinations were made using purified human Factor XIa; purchased Sekisui Diagnostics; assay: Factor XIa Assay (hydrolysis of fluorogenic substrate Z-Gly-Pro-Arg-AFC); format: biochemical; settings: purified human Factor XIa 40 pM; Z-Gly-Pro-Arg-AFC 100 μM; 50 mM HEPES pH 7.4; read-out: Factor XIa Inhibition (IC50 (nM))
measured.property: IC50 (nM)

compound | target.desc | IC50, nM
CC1CC(N2CCC(N)CC2)CN(C(=O)/C=C/c2cc(Cl)ccc2-n2cnnn2)C1C(=O)Nc1ccc(C(=O)O)cc1 (stereo not shown) | purified human Factor XIa (Homo sapiens) | 105
NC1CCN(C2CC(c3ccc(F)cc3)C(c3nc(-c4cccnc4)c[nH]3)N(C(=O)/C=C/c3cc(Cl)ccc3-n3cnnn3)C2)CC1 (stereo not shown) | purified human Factor XIa (Homo sapiens) | 139
O=C(O)c1ccc(NC(=O)[C@@H]2[C@H](OC3CCNCC3)C[C@H](c3ccccc3)CN2C(=O)/C=C/c2cc(Cl)ccc2-n2cnnn2)cc1 (racemic) | purified human Factor XIa (Homo sapiens) | 155
N#Cc1ccc(-c2cnc(C3C(c4ccc(F)cc4)CC(N4CCC(N)CC4)CN3C(=O)/C=C/c3c(C(F)(F)F)ccc(Cl)c3F)[nH]2)cc1 (stereo not shown) [Example 16] | purified human Factor XIa (Homo sapiens) | 35.6
O=C(Nc1ccc2[nH]ncc2c1)[C@@H]1[C@H](c2ccc(F)cc2)C[C@H](N2CCOCC2)CN1C(=O)/C=C/c1cc(Cl)ccc1-n1cnnn1 | purified human Factor XIa (Homo sapiens) | 81.1

A = COC(=O)Nc1ccc(-c2c[nH]c([C@@H]3[C@H](C4CC4)C[C@H](C4CCNCC4)CN3C(=O)/C=C/c3cc(Cl)ccc3-n3cnnn3)n2)cc1 (single isomer, unassigned)
B = CC(C)C1CC(N2CCC(N)CC2)CN(C(=O)/C=C/c2cc(Cl)ccc2-n2cnnn2)C1C(=O)Nc1ccc(C(=O)O)cc1 (stereo not shown)
Pick one, A or B : lowest reported IC50. To answer, give the label that identifies your chosen option.
B
